- study.target: NAD-dependent protein deacetylase HST2 (Saccharomyces cerevisiae S288c) (UniProt P53686)
- Sequence (P53686 whole entry): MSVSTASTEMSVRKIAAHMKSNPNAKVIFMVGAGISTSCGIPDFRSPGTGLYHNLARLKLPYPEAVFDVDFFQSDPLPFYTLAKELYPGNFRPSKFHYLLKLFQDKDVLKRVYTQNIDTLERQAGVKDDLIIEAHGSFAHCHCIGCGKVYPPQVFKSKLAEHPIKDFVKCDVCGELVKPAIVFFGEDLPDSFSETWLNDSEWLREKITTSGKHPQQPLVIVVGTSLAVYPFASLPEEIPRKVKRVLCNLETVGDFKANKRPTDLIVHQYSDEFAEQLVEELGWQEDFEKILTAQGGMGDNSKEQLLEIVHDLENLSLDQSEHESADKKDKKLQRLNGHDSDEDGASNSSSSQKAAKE
- experiment.summary: Inhibition of yeast Hst2 assessed as residual activity at 500 uM by fluorimetric assay relative to control
Everything with Activity lower than 80% is FALSE; everything else, including exactly 80%, is TRUE.

{"molecule": "Cc1cc(Cc2cc(C)c(O)c(C)c2)cc(C)c1O", "study.target": "NAD-dependent protein deacetylase HST2 (Saccharomyces cerevisiae S288c) (UniProt P53686)", "label.class": "FALSE"}
{"molecule": "CCc1ccc(OCCCC(=O)Oc2ccc3c(C)cc(=O)oc3c2)cc1", "study.target": "NAD-dependent protein deacetylase HST2 (Saccharomyces cerevisiae S288c) (UniProt P53686)", "label.class": "FALSE"}
{"molecule": "Nc1cccc(Cc2cccc(N)c2)c1", "study.target": "NAD-dependent protein deacetylase HST2 (Saccharomyces cerevisiae S288c) (UniProt P53686)", "label.class": "TRUE"}
{"molecule": "Oc1c(Cc2ccccc2Cl)ccc2cccnc12", "study.target": "NAD-dependent protein deacetylase HST2 (Saccharomyces cerevisiae S288c) (UniProt P53686)", "label.class": "TRUE"}
{"molecule": "COc1cc2c(cc1O)CN(C)CC2", "study.target": "NAD-dependent protein deacetylase HST2 (Saccharomyces cerevisiae S288c) (UniProt P53686)", "label.class": "TRUE"}
{"molecule": "C#CC1c2cc(O)c(OC)cc2CCN1C (configuration not stated)", "study.target": "NAD-dependent protein deacetylase HST2 (Saccharomyces cerevisiae S288c) (UniProt P53686)", "label.class": "TRUE"}
{"molecule": "Cc1ccc(OCCCC(=O)Oc2ccc3c(C)cc(=O)oc3c2)c(C)c1", "study.target": "NAD-dependent protein deacetylase HST2 (Saccharomyces cerevisiae S288c) (UniProt P53686)", "label.class": "FALSE"}
{"molecule": "Cc1c(Cl)c(=O)oc2cc(OC(=O)CCNC(=O)Oc3ccccc3)ccc12", "study.target": "NAD-dependent protein deacetylase HST2 (Saccharomyces cerevisiae S288c) (UniProt P53686)", "label.class": "FALSE"}
{"molecule": "COCC#CC1(C)c2cc(O)c(OC)cc2CCN1C (configuration not stated)", "study.target": "NAD-dependent protein deacetylase HST2 (Saccharomyces cerevisiae S288c) (UniProt P53686)", "label.class": "TRUE"}
{"molecule": "Oc1ccc(Cc2ccccc2)cc1", "study.target": "NAD-dependent protein deacetylase HST2 (Saccharomyces cerevisiae S288c) (UniProt P53686)", "label.class": "TRUE"}
{"molecule": "C#C[C@H]1c2cc(O)c(OC)cc2CCN1C", "study.target": "NAD-dependent protein deacetylase HST2 (Saccharomyces cerevisiae S288c) (UniProt P53686)", "label.class": "FALSE"}
{"molecule": "Cc1c(Cl)c(=O)oc2cc(OC(=O)CCCOc3ccc(Cl)cc3Cl)ccc12", "study.target": "NAD-dependent protein deacetylase HST2 (Saccharomyces cerevisiae S288c) (UniProt P53686)", "label.class": "FALSE"}
{"molecule": "COc1ccc(OCCCC(=O)Oc2ccc3c(C)cc(=O)oc3c2)cc1", "study.target": "NAD-dependent protein deacetylase HST2 (Saccharomyces cerevisiae S288c) (UniProt P53686)", "label.class": "FALSE"}
{"molecule": "C#C[C@@H]1c2cc(O)c(OC)cc2CCN1C", "study.target": "NAD-dependent protein deacetylase HST2 (Saccharomyces cerevisiae S288c) (UniProt P53686)", "label.class": "FALSE"}
{"molecule": "Cc1cccc(OCC(=O)Oc2ccc3c(C)cc(=O)oc3c2)c1", "study.target": "NAD-dependent protein deacetylase HST2 (Saccharomyces cerevisiae S288c) (UniProt P53686)", "label.class": "FALSE"}
{"molecule": "COCCCC1c2cc(O)c(OC)cc2CCN1C (configuration not stated)", "study.target": "NAD-dependent protein deacetylase HST2 (Saccharomyces cerevisiae S288c) (UniProt P53686)", "label.class": "TRUE"}
{"molecule": "Cc1ccc(OCCCC(=O)Oc2ccc3c(c2)CCC3)c(C)c1", "study.target": "NAD-dependent protein deacetylase HST2 (Saccharomyces cerevisiae S288c) (UniProt P53686)", "label.class": "FALSE"}
{"molecule": "COc1ccc(OCCCC(=O)Oc2ccc3c(c2)CCC3)cc1", "study.target": "NAD-dependent protein deacetylase HST2 (Saccharomyces cerevisiae S288c) (UniProt P53686)", "label.class": "FALSE"}
{"molecule": "COC/C=C/C1c2cc(O)c(OC)cc2CCN1C (configuration not stated)", "study.target": "NAD-dependent protein deacetylase HST2 (Saccharomyces cerevisiae S288c) (UniProt P53686)", "label.class": "TRUE"}
{"molecule": "Cc1cc(=O)oc2cc(OC(=O)COc3ccccc3)ccc12", "study.target": "NAD-dependent protein deacetylase HST2 (Saccharomyces cerevisiae S288c) (UniProt P53686)", "label.class": "FALSE"}
{"molecule": "Cc1ccc(OCCCC(=O)Oc2ccc3c(C)cc(=O)oc3c2)cc1", "study.target": "NAD-dependent protein deacetylase HST2 (Saccharomyces cerevisiae S288c) (UniProt P53686)", "label.class": "FALSE"}
